Values from a melting point compilation (Tetko et al.; mined from patent text by program, amines drawn as free bases though some values may be those of a salt)

readout-name: melting point

compound: Cc1cc2c(nc3n2CCC3)c([N+](=O)[O-])c1Br
readout-name: melting point
reported-value: 201 to 203 °C
//
compound: COc1cc(N)c(Cl)cc1C(=O)N[C@H]1CCN(CCCNc2nc3ccccc3s2)C[C@H]1OC (relative stereo)
readout-name: melting point
reported-value: 162 °C
//
compound: CCN1C(c2ccccc2C(=O)c2ccccc2)=N[C@@H]2CCCC[C@H]21 (relative stereo)
readout-name: melting point
reported-value: 80 to 83 °C
//
compound: CC(=S)NCC1CN(c2ccc(S(=O)CCF)c(F)c2)C(=O)O1 (stereo not given)
readout-name: melting point
reported-value: 161 °C
//
compound: N=C(NCc1c(F)cccc1F)NN=Cc1c(Cl)cccc1Cl
readout-name: melting point
reported-value: 168 to 170 °C

Continue with the next compound.
Task item: Dear colleague, I am looking for the recorded melting point of the following compound: O=C1C(=O)c2c(nc3ccccn23)-c2cccc(Cl)c21
Reply: > 260 °C

====

readout-name: melting point

compound: CCOC(=O)N1CCN(c2nc(N)ccc2[N+](=O)[O-])CC1
melting point: 132 to 134 °C

Task item: Dear colleague, I am looking for the recorded melting point of the following compound: O=C(O)c1cccc2c1CCc1ccccc1C2=O
Reply: 188 to 189 °C

Task item: Dear colleague, I am looking for the recorded melting point of the following compound: CC(=O)SCC(C)C(=O)NC(CCCNC(=N)N)C(=O)O (stereo not given)
Reply: 133 °C

Task item: Dear colleague, I am looking for the recorded melting point of the following compound: CCc1nc2c(N)nc3ccccc3c2n1CCOCCS(C)(=O)=O
Reply: 160 to 163 °C

Task item: Dear colleague, I am looking for the recorded melting point of the following compound: CNc1cc(OCC(O)CN2C(=O)CCC2=O)ccc1[N+](=O)[O-] (stereo not given)
Reply: 152 °C

Task item: Dear colleague, I am looking for the recorded melting point of the following compound: CC(=NO)C(C)(C)NN(C)CCNC(C)(C)C(Cn1ccnc1[N+](=O)[O-])=NO
Reply: 132 to 134 °C

Task item: Dear colleague, I am looking for the recorded melting point of the following compound: CCOC(=O)c1c(CC)nn2c(-c3ccccc3)ccnc12
Reply: 83 to 84 °C

Task item: Dear colleague, I am looking for the recorded melting point of the following compound: CCCc1c(OCCCCCC(=O)NCCc2ccncc2)ccc(C(C)=O)c1O
Reply: 80 to 83 °C

Task item: Dear colleague, I am looking for the recorded melting point of the following compound: Cc1nc2nsc(N)c2s1
Reply: 164 to 167 °C

Task item: Dear colleague, I am looking for the recorded melting point of the following compound: CC(C)(C)CC(C)(C)c1cc(Cc2cc(C(C)(C)CC(C)(C)C)cc(-n3nc4ccccc4n3)c2O)c(O)c(-n2nc3ccccc3n2)c1
Reply: 198 °C

====

readout-name: melting point

compound: Nc1ccccc1Cn1[nH]c2ccccc2c1=O
melting point: 204 to 205 °C
--
compound: N#Cc1c(N2CCN(C(=O)c3ccco3)CC2)c2cc(F)ccc2n(Cc2ccccc2)c1=O
melting point: 209 °C
--
compound: N#Cc1c(O)cc(C(F)(F)F)cc1Cl
melting point: 138 °C

Task item: Dear colleague, I am looking for the recorded melting point of the following compound: COc1cccc(NC(=O)COC(C)=O)c1C#N
Reply: 131 to 132 °C

Task item: Dear colleague, I am looking for the recorded melting point of the following compound: CC(C)OC(=Cn1cnnn1)c1ccc(Cl)cc1Cl
Reply: 82 °C

Task item: Dear colleague, I am looking for the recorded melting point of the following compound: CCCCc1nc2c(N)nc3ccccc3c2n1CCCNS(=O)(=O)c1ccc(C)cc1
Reply: 197 to 198 °C

Task item: Dear colleague, I am looking for the recorded melting point of the following compound: CCOc1ccc2nc(NC(=O)N(C)C)sc2c1
Reply: 183 to 186 °C

====

readout-name: melting point

compound: CCCCCCCC(=O)CCC(C)=O
melting point: 40 to 41 °C
//
compound: O=c1[nH]c2cc(Cl)c(Cl)c(-c3ccncc3)c2[nH]c1=O
melting point: > 300 °C
//
compound: CCCc1c(CSc2nnc(SCc3ccc(OCC(=O)O)cc3)s2)ccc(C(C)=O)c1O
melting point: 131 to 134 °C
//
compound: CCCCc1nc(-c2ccc(N3CCN(C(=O)c4ccccc4C(F)(F)F)CC3)nn2)no1
melting point: 175 °C
//
compound: CCOC(=O)c1cnc2c(c(C)nn2-c2ccccn2)c1Cl
melting point: 121 to 123 °C
//
compound: CCc1cc(N(Cc2ccc(-c3ccccc3-c3nnn(C(c4ccccc4)(c4ccccc4)c4ccccc4)n3)cc2)C(C)=O)cc(CC)n1
melting point: 98 to 102 °C
//
compound: COc1ccc(C2=NOC3(CCOC3=O)C2)cc1OC1CCCC1 (stereo unspecified)
melting point: 152 to 153 °C
//
compound: Oc1ccc(CCCC2OCCO2)cc1
melting point: 67 to 68 °C

Task item: Dear colleague, I am looking for the recorded melting point of the following compound: CSCC(=O)[C@H](Cc1ccccc1)NC(=O)[C@H](CC(C)C)NC(=O)OC(C)(C)C
Reply: 117 to 118 °C

Task item: Dear colleague, I am looking for the recorded melting point of the following compound: COc1ccc(-n2nc(OC(C)C)cc2-c2ccc(OCCO)cc2)cn1
Reply: 74 to 75 °C

Task item: Dear colleague, I am looking for the recorded melting point of the following compound: Cn1nc(C#N)c(Nc2ccc(Br)cc2[N+](=O)[O-])n1
Reply: 162 to 164 °C

Task item: Dear colleague, I am looking for the recorded melting point of the following compound: CCOC(=O)C(=Nc1ccccc1)c1cccn1C
Reply: 69 to 71 °C

Task item: Dear colleague, I am looking for the recorded melting point of the following compound: Cc1c(-c2ccc(Cl)nc2)sc2nc(N)[nH]c(=O)c12
Reply: 230 to 250 °C

Task item: Dear colleague, I am looking for the recorded melting point of the following compound: Cc1cc2c(cc1Sc1ccc(C(=O)O)cc1)C(C)(C)CCC2(C)C
Reply: 253 to 254 °C

Task item: Dear colleague, I am looking for the recorded melting point of the following compound: O=C1c2ccccc2C(=O)N1CCCSc1nccc(NC(=S)NCC(F)(F)F)n1
Reply: 214 to 215 °C

Task item: Dear colleague, I am looking for the recorded melting point of the following compound: CC(=O)NC[C@H]1CN(c2ccc(N=C=S)c(F)c2)C(=O)O1
Reply: 172 to 176 °C

Task item: Dear colleague, I am looking for the recorded melting point of the following compound: Nc1cccc(C(=O)NS(=O)(=O)c2ccccc2)c1
Reply: 138 °C

Task item: Dear colleague, I am looking for the recorded melting point of the following compound: COc1ccc(Br)c2c1-c1ccc(NS(C)(=O)=O)cc1C(c1ccccc1)O2 (stereo unspecified)
Reply: 122 to 123 °C

Task item: Dear colleague, I am looking for the recorded melting point of the following compound: O=C1c2ccc(Cl)cc2CC1S(=O)(=O)c1ccccc1 (stereo unspecified)
Reply: 133 °C

Task item: Dear colleague, I am looking for the recorded melting point of the following compound: CN(C)Cc1c(-c2ccc(OC(F)F)c(OC3CC3)c2)[nH]c2cn[nH]c(=O)c12
Reply: 154 to 157 °C

Task item: Dear colleague, I am looking for the recorded melting point of the following compound: NC1=Nc2ncccc2OC1
Reply: 173 to 174 °C

====

readout-name: melting point

Field: example entries. Status: answers known.
molecule: CCc1nnc(-c2ccc(NC=O)cc2)n1-c1ccccc1OC
reported-value: 250 °C
//
molecule: CC(=O)NC[C@H]1CN(c2ccc(N3CCC(=C(C#N)Cc4ccccc4)CC3)c(F)c2)C(=O)O1
reported-value: 98 to 100 °C
//
molecule: O=C(CN1C(=O)CC1S(=O)Cc1ccccc1)NCCCCCCc1ccccc1 (stereo unspecified)
reported-value: 138 to 140 °C

Task item: Dear colleague, I am looking for the recorded melting point of the following molecule: Cc1ccnc(NC(=O)c2nc3ccccc3[nH]2)c1
Reply: 262 °C

Task item: Dear colleague, I am looking for the recorded melting point of the following molecule: CN1CCN(c2nn(-c3ccc(Cl)cc3Cl)c3ccccc23)CC1
Reply: 150 to 152 °C

Task item: Dear colleague, I am looking for the recorded melting point of the following molecule: CC(C)(C)COC(=O)Oc1cc(Cl)nnc1-c1ccc(Br)cc1
Reply: 114 to 116 °C

Task item: Dear colleague, I am looking for the recorded melting point of the following molecule: Cn1c2c(ccc1=O)C(C)(N)CCC2 (stereo unspecified)
Reply: 166 to 168 °C

Task item: Dear colleague, I am looking for the recorded melting point of the following molecule: CC(=O)N(C)C(CCl)C(=O)O (stereo unspecified)
Reply: 104 °C

====

Quick reference: melting point of the listed items.

Field: example entries. Status: answers known.
molecule: O=C1C[C@@H]2[C@@H](CC[C@@H](O)COc3cccc(Cl)c3)[C@H](O)C[C@@H]2O1
melting point: 102 to 104 °C

molecule: O=C(Nc1ccc(Cl)nc1Cl)c1ccccc1O
melting point: 179 to 186 °C

molecule: CCCCC(CC)CNC(=O)c1cc(C(C)(C)C)c(O)c(C(C)(C)C)c1 (centres undefined)
melting point: 136 to 140 °C

molecule: Cc1c(-c2ccc(OC3CCCC3)cc2)n(Cc2ccc(OCCO)cc2)c2ccc(OCc3ccccc3)cc12
melting point: 129 to 131 °C

molecule: C=C(C)COc1ccc(C(=O)C=Cc2cccc(OC)c2)c(O)c1
melting point: 97 to 100 °C

Task item: Dear colleague, I am looking for the recorded melting point of the following molecule: CC(=O)NCC1CN(c2ccc(N3CCN(c4nc5ccc([N+](=O)[O-])cc5s4)CC3)c(F)c2)C(=O)O1 (centres undefined)
Reply: 216 to 217 °C
